experiment: self-splicing fitness, log relative to wild type (ln ratio); higher = more splicing; Tetrahymena group I intron in knt gene, E. coli kanamycin selection, DiMSum; sequences stand for … in CUCUCU…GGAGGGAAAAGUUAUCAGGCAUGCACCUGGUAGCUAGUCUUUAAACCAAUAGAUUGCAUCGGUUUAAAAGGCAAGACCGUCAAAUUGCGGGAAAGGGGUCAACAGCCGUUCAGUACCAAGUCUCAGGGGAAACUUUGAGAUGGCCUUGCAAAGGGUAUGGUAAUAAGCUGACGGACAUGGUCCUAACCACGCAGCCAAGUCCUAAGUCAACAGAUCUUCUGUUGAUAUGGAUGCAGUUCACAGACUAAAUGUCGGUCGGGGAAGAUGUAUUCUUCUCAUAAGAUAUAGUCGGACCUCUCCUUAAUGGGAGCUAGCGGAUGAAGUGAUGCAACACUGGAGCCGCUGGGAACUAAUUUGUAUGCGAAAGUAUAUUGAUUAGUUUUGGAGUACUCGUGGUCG; settings: 37 °C;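 further: selection with 25 µg/mL kanamycin versus none on LB agar overnight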
// map self-splicing fitness (ln) to label using lower bin (below -2), middle bin (-2 to below -0.8), upper bin (-0.8 or more)

• CGGCAGCAAUAUUACGGGGA = lower bin
• CUGGAGCAAUAUUACGGAAC = lower bin
• ACACAGCAAUAUUACGCAGG = middle bin
• CCAAAGCAAUAUUACGACUG = upper bin
• UUAUAGCAAUAUUACGUGCG = upper bin
• GCUAAGCAAUAUUACGUAUU = middle bin
• UCGAAGCAAUAUUACGGUGU = middle bin
• ACUAAGCAAUAUUACGGUUU = upper bin
• AGCGAGCAAUAUUACGUAUA = lower bin
• GUAGAGCAAUAUUACGUGAU = middle bin
• CACAAGCAAUAUUACGACUA = middle bin
• CAGUAGCAAUAUUACGCCAG = upper bin
• AUCCAGCAAUAUUACGGAGA = middle bin
• AGGAAGCAAUAUUACGUCGG = middle bin
• CCGGAGCAAUAUUACGAAUU = lower bin
• UCCGAGCAAUAUUACGGAAG = middle bin
• ACCGAGCAAUAUUACGCGGU = middle bin
• AGUUAGCAAUAUUACGCACU = middle bin
• UAUCAGCAAUAUUACGUUCU = middle bin
• CGUGAGCAAUAUUACGUCAU = lower bin
• GCAAAGCAAUAUUACGUGCA = middle bin
• AGCGAGCAAUAUUACGUAGG = lower bin
• AUGAAGCAAUAUUACGCGCA = upper bin
• UUAAAGCAAUAUUACGCAGA = upper bin
• CCCUAGCAAUAUUACGAGUC = lower bin
• GCGUAGCAAUAUUACGACAC = upper bin
• CUGCAGCAAUAUUACGAACG = upper bin
• CCUGAGCAAUAUUACGAUGU = middle bin
• AGUCAGCAAUAUUACGCAUA = upper bin
• CUGAAGCAAUAUUACGCCUG = upper bin
• UGACAGCAAUAUUACGCGCU = upper bin
• CAACAGCAAUAUUACGGUCG = upper bin
• CCCCAGCAAUAUUACGAGCC = lower bin
• GGGCAGCAAUAUUACGUAAA = upper bin
• GUCAAGCAAUAUUACGCGUG = middle bin
• GCAGAGCAAUAUUACGUCCG = lower bin
• CUUUAGCAAUAUUACGGUUA = lower bin
• AAUCAGCAAUAUUACGCAAC = upper bin
• AGGCAGCAAUAUUACGUCCU = middle bin
• GAUGAGCAAUAUUACGAAAU = middle bin
• AGGUAGCAAUAUUACGCGCG = upper bin
• AAAGAGCAAUAUUACGAUGU = middle bin
• GCCGAGCAAUAUUACGGAAU = upper bin
• GGUCAGCAAUAUUACGGCAU = upper bin
• AGCAAGCAAUAUUACGUGGU = lower bin
• CUCAAGCAAUAUUACGCGAU = middle bin
• GCCAAGCAAUAUUACGAUCU = middle bin
• UCGGAGCAAUAUUACGCUUG = lower bin
• AUCGAGCAAUAUUACGGCAA = lower bin
• CCCCAGCAAUAUUACGAACC = lower bin
• UAACAGCAAUAUUACGUCCC = middle bin
• AAAGAGCAAUAUUACGACCU = upper bin
• ACCCAGCAAUAUUACGACUG = lower bin
• GGGUAGCAAUAUUACGUUGU = middle bin
• AUUAAGCAAUAUUACGUGUG = middle bin
• GGUCAGCAAUAUUACGCAGA = lower bin
• GUUCAGCAAUAUUACGAAGU = upper bin
• GGCAAGCAAUAUUACGGGGA = middle bin
• UAGGAGCAAUAUUACGUCAG = middle bin
• AGGAAGCAAUAUUACGGGCG = middle bin
• GUAAAGCAAUAUUACGAUCC = upper bin
• GUGAAGCAAUAUUACGUAUA = upper bin
• CUCGAGCAAUAUUACGCCAU = middle bin
